- System: SF-268 CNS
- Measurement protocol: NCI-60 one-dose screen, 48 h (100 = growth as untreated, 0 = no growth, -100 = all killed)
- Experimental context: 10 µM unless noted
The panel holds about 83,000 compounds, 20% with a hit somewhere; the sample as a whole holds those more often.
molecules and their reported growth
The answer is to be given in %; state only the numeric part.

Observe how each entry below is paired with its result.
• O=C(NCCCNc1cc(-c2cn(-c3ccccc3)nc2-c2cccc(O)c2)ccn1)Nc1cc(C(F)(F)F)cc(C(F)(F)F)c1 = 60.6
• COc1ccccc1/C=C/C(=O)c1nnn(-c2ccc(C(=O)O)cc2)c1C = 87.5
• COc1cc(/C=N/n2cnc3oc(-c4ccccc4)cc3c2=N)cc(CN2CCCC2)c1O = 88.6

QUERY: Would you mind telling me what growth value was observed for Cc1ccc(NC(=O)c2ccc(CN3CCN(C)CC3)c(I)c2)cc1Oc1ccc(-c2[nH]nc3ncnc(N)c23)cc1 ?
RESULT: 90.3

QUERY: Would you mind telling me what growth value was observed for N=c1c2cc(-c3ccccc3)oc2ncn1/N=C/c1ccccc1 ?
RESULT: 89

QUERY: Would you mind telling me what growth value was observed for C=CCn1c(SCC(=O)Nc2cccc(C(=O)/C=C/c3ccc(Br)cc3)c2)nc2ccccc2c1=O ?
RESULT: 90.3
